# assay-info: in vitro
# assay-context: human, MRC-5 cells (human embryonal lung fibroblasts)
measured-endpoint: viability at 144 h (%)
One number for each entry, in %.

Field request: viability at 144 h | item: CCNC(=O)[C@@H]1CCCN1C(=O)[C@H](CCCNC(=N)N)NC(=O)[C@@H](CC(C)C)NC(=O)[C@@H](Cc1cn(Cc2ccccc2)cn1)NC(=O)[C@H](Cc1ccc(O)cc1)NC(=O)[C@H](CO)NC(=O)[C@H](Cc1c[nH]c2ccccc12)NC(=O)[C@H](Cc1c[nH]cn1)NC(=O)[C@@H]1CCC(=O)N1 100

* * *

# assay-info: in vitro
# assay-context: human, CEM-SS cells
measured-endpoint: viability at 10 micrograms per ml (%)
One number for each entry, in %.

Field request: viability at 10 micrograms per ml | item: CCNC(=O)[C@@H]1CCCN1C(=O)[C@H](CCCNC(=N)N)NC(=O)[C@@H](CC(C)C)NC(=O)[C@@H](Cc1cn(Cc2ccccc2)cn1)NC(=O)[C@H](Cc1ccc(O)cc1)NC(=O)[C@H](CO)NC(=O)[C@H](Cc1c[nH]c2ccccc12)NC(=O)[C@H](Cc1c[nH]cn1)NC(=O)[C@@H]1CCC(=O)N1 [D-Leu^7-Histrelin] 100

* * *

# assay-info: in vitro
# assay-context: human
measured-endpoint: viability at 144 h, 10 micrograms per ml (%)
Numbers only, in %.

Field request: viability at 144 h, 10 micrograms per ml | item: CCNC(=O)[C@@H]1CCCN1C(=O)[C@H](CCCNC(=N)N)NC(=O)[C@@H](CC(C)C)NC(=O)[C@@H](Cc1cn(Cc2ccccc2)cn1)NC(=O)[C@H](Cc1ccc(O)cc1)NC(=O)[C@H](CO)NC(=O)[C@H](Cc1c[nH]c2ccccc12)NC(=O)[C@H](Cc1c[nH]cn1)NC(=O)[C@@H]1CCC(=O)N1 [D-Leu^7-Histrelin] 91.4
